The measurements presented in this section are drawn from patent US20230265151A1.

Biological target: human GLP-1 receptor (human, UniProt P43220 24-463)
Assay: cell-based or functional assay
*1 amine or outer side, *2 acyl side, *3 side chain or, on linkers, in order; H or OH if unused. Where no end group is shown, it is not given here. Side-chain parts run from the residue outwards. [ ]: non-standard residue; d: D form. The star is where a group is joined. αMePhe(2-F) = C[C@](N)(Cc1ccccc1F)C(=O)O; γGlu = O=C(O)[C@H](CCC(=O)[*:2])N[*:1]; C14 diacid = O=C(O)CCCCCCCCCCCCC(=O)*; αMeY = C[C@](N)(Cc1ccc(O)cc1)C(=O)O; αMeF = C[C@](N)(Cc1ccccc1)C(=O)O; αMeL = CC(C)C[C@](C)(N)C(=O)O; Orn = NCCC[C@H](N)C(=O)O; AEEA = NCCOCCOCC(=O)O; Aib = CC(C)(N)C(=O)O
MEASUREMENT_TYPE: EC50, cAMP

Worked cases, answers included:
BINDER	EC50, cAMP
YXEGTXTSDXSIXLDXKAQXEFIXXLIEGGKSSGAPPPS (Aib2, αMeF(2F)6, 4Pal10, αMeL13, Orn16, Aib20, D-Glu24, αMeY25, K17 and K31: K((εK)-(εK)-(γ-Glu)-CO-(CH2)12-CO2H), C-terminal NH2) [Example 40]	279 pM
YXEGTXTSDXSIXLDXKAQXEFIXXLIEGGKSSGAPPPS (Aib2, αMeF(2F)6, 4Pal10, αMeL13, Orn16, Orn20, D-Glu24, αMeY25, K17 and K31: K(AEEA2-(γ-Glu)-CO-(CH2)12-CO2H), C-terminal NH2) [Example 149]	1500 pM
YXEGTXTSDXGIXLDXKAQXEFIXXLIEGGKSSGAPPPS (Aib2, αMeF(2F)6, 4Pal10, αMeL13, Orn16, Aib20, D-Glu24, αMeY25, K17 and K31: K(AEEA2-(γ-Glu)-CO-(CH2)12-CO2H), C-terminal NH2) [Example 100]	11400 pM

Dear reader, for each entry below, please note its EC50, cAMP.
1. YXEGTXTSDKSIXLDXIAQXKXIXXLIEGGPSSGAPPPS (Aib2, αMeF(2F)6, αMeL13, Orn16, Aib20, αMeF22, D-Glu24, αMeY25, K10 and K21: K(AEEA2-(γ-Glu)-CO-(CH2)12-CO2H), C-terminal NH2) [Example 109]
2. YXEGTXTSDKSIXLDXKAQXEFIXXLIEGGPSSGAPPPS (Aib2, αMeF(2F)6, αMeL13, Orn16, Aib20, D-Glu24, αMeY25, K10 and K17: K(AEEA2-(γ-Glu)-CO-(CH2)12-CO2H), C-terminal NH2) [Example 27]
3. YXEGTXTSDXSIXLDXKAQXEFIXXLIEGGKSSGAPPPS (Aib2, αMeF6, αMeF10, αMeL13, Orn16, Aib20, D-Glu24, αMeY25, K17 and K31: K(AEEA2-(γ-Glu)-CO-(CH2)12-CO2H), C-terminal NH2) [Example 45]
4. YXEGTXTSDXSIXLDXKAQXEFIXKLIEGGPSSGAPPPS (Aib2, αMeF(2F)6, 4Pal10, αMeL13, Orn16, Aib20, D-Glu24, K17 and K25: K(AEEA2-(γ-Glu)-CO-(CH2)14-CH3), C-terminal NH2) [Example 32]
5. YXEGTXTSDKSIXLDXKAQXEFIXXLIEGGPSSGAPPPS (Aib2, αMeF(2F)6, αMeL13, Orn16, Aib20, D-Glu24, αMeY25, K10 and K17: K(AEEA2-(γ-Glu)-(4-(4-tert-butylphenyl)butanoyl)), C-terminal NH2) [Example 130]

Solution:
["846 pM", "2770 pM", "9180 pM", "6.3 pM", "204 pM"]

Dear reader, for each entry below, please note its EC50, cAMP.
1. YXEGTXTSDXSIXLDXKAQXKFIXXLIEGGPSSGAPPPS (Aib2, αMeF(2F)6, 4Pal10, αMeL13, Orn16, Aib20, D-Glu24, αMeY25, K17 and K21: K(AEEA2-CO-(CH2)12-CO2H), C-terminal NH2) [Example 78]
2. Y[Aib]EGT[αMePhe(2-F)]TSDV[Aib]I[αMeL]LD[Orn]K([AEEA-AEEA-γGlu-C14 diacid])AQ[Aib]E[αMeF]I[dE][αMeY]LIEGGK([AEEA-AEEA-γGlu-C14 diacid])SSGAPPPS-NH2 [Example 93]
3. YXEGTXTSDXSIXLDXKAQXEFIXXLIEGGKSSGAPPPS (Aib2, αMeF(2F)6, ChG10, αMeL13, Orn16, Aib20, D-Glu24, αMeY25, K17 and K31: K(AEEA2-(γ-Glu)-CO-(CH2)12-CO2H), C-terminal NH2) [Example 97]
4. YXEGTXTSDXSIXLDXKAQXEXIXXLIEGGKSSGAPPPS (Aib2, αMeF(2F)6, 4Pal10, αMeL13, Orn16, Aib20, ChA22, D-Glu24, αMeY25, K17 and K31: K(AEEA2-(γ-Glu)-CO-(CH2)12-CO2H), C-terminal NH2) [Example 148]
5. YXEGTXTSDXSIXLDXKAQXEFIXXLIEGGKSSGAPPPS (Aib2, αMeF(2F)6, hTyr10, αMeL13, Orn16, Aib20, D-Glu24, αMeY25, K17 and K31: K(AEEA2-(γ-Glu)-CO-(CH2)12-CO2H), C-terminal NH2) [Example 59]
6. YXEGTXTSDXSIXLDXKAQXEFIXKLIEGGPSSGAPPPS (Aib2, αMeF(2F)6, 4Pal10, αMeL13, Orn16, Aib20, D-Glu24, K17 and K25: K(AEEA2-(γ-Glu)-(4-(4-tert-butylphenyl)butanoyl)), C-terminal NH2) [Example 67]
7. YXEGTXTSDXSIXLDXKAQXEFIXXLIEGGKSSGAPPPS (Aib2, αMeF(2F)6, αMeL10, αMeL13, Orn16, Aib20, D-Glu24, αMeY25, K17 and K31: K(AEEA2-(γ-Glu)-CO-(CH2)12-CO2H), C-terminal NH2) [Example 51]

Solution:
286 pM
575 pM
683 pM
1770 pM
202 pM
2630 pM
890 pM

Dear reader, for each entry below, please note its EC50, cAMP.
1. Y[Aib]EGT[αMePhe(2-F)]TSDV[Aib]I[αMeL]LD[Orn]K([AEEA-AEEA-γGlu-C14 diacid])AQ[Aib]EFIK([AEEA-AEEA-γGlu-C14 diacid])[αMeY]LIEGGPSSGAPPPS-NH2 [Example 115]
2. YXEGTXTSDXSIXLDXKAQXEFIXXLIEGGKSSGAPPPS (Aib2, αMeF6, 4Pal10, αMeL13, Orn16, Aib20, D-Glu24, αMeF25, K17 and K31: K(AEEA2-(γ-Glu)-CO-(CH2)12-CO2H), C-terminal NH2) [Example 48]
3. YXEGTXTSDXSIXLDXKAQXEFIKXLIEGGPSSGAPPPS (Aib2, αMeF(2F)6, 4Pal10, αMeL13, Orn16, Aib20, αMeF25, K17 and K24: K(AEEA2-(γ-Glu)-CO-(CH2)12-CO2H), C-terminal NH2) [Example 83]
4. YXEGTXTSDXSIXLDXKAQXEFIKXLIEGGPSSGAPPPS (Aib2, αMeF(2F)6, 4Pal10, αMeL13, Orn16, Aib20, αMeY25, K17 and K24: K(AEEA2-(γ-Glu)-(4-(4-tert-butylphenyl)butanoyl)), C-terminal NH2) [Example 132]

Solution:
["160 pM", "1000 pM", "451 pM", "182 pM"]

Dear reader, for each entry below, please note its EC50, cAMP.
1. YXEGTXTSDXSIXLDXKAQXEFIXXLIEGXKSSGAPPPS (Aib2, αMeF(2F)6, 4Pal10, αMeL13, Orn16, Aib20, D-Glu24, αMeY25, Orn30, K17 and K31: K(AEEA2-(γ-Glu)-CO-(CH2)12-CO2H), C-terminal NH2) [Example 152]
2. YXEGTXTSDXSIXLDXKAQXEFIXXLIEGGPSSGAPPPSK (Aib2, αMeF(2F)6, 4Pal10, αMeL13, Orn16, Aib20, D-Glu24, αMeY25, K17 and K40: K(AEEA2-(γ-Glu)-(4-(4-tert-butylphenyl)butanoyl)), C-terminal NH2) [Example 135]
3. YXEGTXTSDXXIXLDXKAQXEXIKXLIEGGPSSGAPPPS (Aib2, αMeF(2F)6, 4Pal10, Aib11, αMeL13, Orn16, Aib20, αMeF22, αMeF25, K17 and K24: K(AEEA2-(γ-Glu)-CO-(CH2)12-CO2H), C-terminal NH2) [Example 121]
4. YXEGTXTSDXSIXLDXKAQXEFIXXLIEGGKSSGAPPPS (Aib2, αMeF(2F)6, 4Pal10, αMeL13, Orn16, Aib20, D-Glu24, αMeY25, K17 and K31: K(AEEA-(εK)-(γ-Glu)-CO-(CH2)12-CO2H), C-terminal NH2) [Example 35]

Solution:
1. 3910 pM
2. 271 pM
3. 8950 pM
4. 612 pM
